testedTarget: Acetylcholinesterase (Homo sapiens, UniProt P22303)
Sequence (P22303 whole entry): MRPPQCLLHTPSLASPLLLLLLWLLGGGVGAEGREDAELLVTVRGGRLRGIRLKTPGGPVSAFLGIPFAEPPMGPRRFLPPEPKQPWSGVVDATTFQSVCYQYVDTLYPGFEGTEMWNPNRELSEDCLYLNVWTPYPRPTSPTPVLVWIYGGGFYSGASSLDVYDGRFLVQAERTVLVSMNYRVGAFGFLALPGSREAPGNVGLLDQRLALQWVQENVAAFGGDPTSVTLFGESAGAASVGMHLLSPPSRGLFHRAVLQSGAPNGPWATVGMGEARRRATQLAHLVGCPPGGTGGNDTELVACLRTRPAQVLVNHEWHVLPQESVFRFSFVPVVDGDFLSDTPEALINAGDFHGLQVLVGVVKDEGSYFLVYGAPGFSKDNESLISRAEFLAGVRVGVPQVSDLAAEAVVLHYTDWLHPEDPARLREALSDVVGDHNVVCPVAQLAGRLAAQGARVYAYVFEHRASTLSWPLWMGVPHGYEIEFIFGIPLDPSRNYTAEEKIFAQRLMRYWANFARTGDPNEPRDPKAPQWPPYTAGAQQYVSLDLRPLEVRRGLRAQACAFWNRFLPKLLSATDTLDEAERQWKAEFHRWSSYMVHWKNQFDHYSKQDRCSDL
methodDescription: Inhibition of human recombinant AChE
readout: IC50 (nM)

- COc1ccc2c3c1O[C@H]1C[C@@H](O)C=C[C@@]31CCN(CCCCCCCCN1C(=O)c3ccccc3S1(=O)=O)C2: 50
